- assayOverview: chemical genetic growth profiling, strain panel (AID 1159580);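 note: tested at 20 µM; growth read once vehicle control cultures reached saturation at 30 °C; 1 = growth at the plate median or of vehicle wells; lower values mean less growth of the strain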
- conditionLabel: S. cerevisiae deletion strains, growth OD, locus YMR219W, strain ESC1, hits give low values
About 2,000 (36%) of roughly 5,500 compounds were called active. About 18% were inconclusive and are not listed. Some of the results follow.

{"columns": ["smilesStructure", "normalized growth"],
 "data": [
  ["c1ccc(-c2cc3c(ccc4nonc43)nn2)cc1", 0.981],
  ["Cc1onc(-c2c(Cl)cccc2Cl)c1C(=O)OCC(F)(F)F", 0.997],
  ["Nc1cc2c(cc1Cl)C(=O)NC2=O", 1.01],
  ["CC(/C=N\\O)=N/Nc1ccccc1", 0.955],
  ["COC(=O)c1sccc1NC(=O)C1CC1", 0.981],
  ["COC(=O)c1sccc1-c1ccc(C(C)=O)o1", 0.978],
  ["c1ccc(-c2cc3c(nn2)CCc2nonc2-3)cc1", 0.985],
  ["CCOC(=O)Nc1ccsc1C(=O)OC", 1],
  ["Cc1onc(-c2c(F)cccc2Cl)c1C(=O)Oc1ccccc1", 0.966]
]}
